Cited source for all entries: ChEMBL document CHEMBL2429750

Run description: Chronic cytotoxicity against PEK cells after 7 days by neutral red staining assay
Assay type: cell-based, Sus scrofa
Test settings: pig
Measured CC50 at 168 h of individual entries
Could you give me the number in µM? Just the number is fine.

The cases that follow already have their CC50 at 168 h on record.
Exam item: # CC50 at 168 h lookup, item CCCCc1ccc(N2CSC3=C(C#N)C(c4ccc(OCc5ccccc5)cc4)CC(=O)N3C2)cc1 (racemic)
Marked response: 35

Exam item: # CC50 at 168 h lookup, item CCc1ccc(NC(=O)CSC2=C(C#N)C(c3ccco3)C(C(=O)Nc3ccc(S(N)(=O)=O)cc3)=C(C)N2)cc1 (racemic)
Marked response: 153

Exam item: # CC50 at 168 h lookup, item COc1ccccc1NC(=O)C1=C(C)NC(SCC(=O)Nc2ccc(C)cc2)=C(C#N)C1c1cccs1 (racemic)
Marked response: 97

Exam item: # CC50 at 168 h lookup, item CCOc1ccccc1N1CSC2=C(C#N)C(c3cccc(OCc4ccccc4)c3)CC(=O)N2C1 (racemic)
Marked response: 116

Exam item: # CC50 at 168 h lookup, item COc1ccc(N2CSC3=C(C#N)C(c4ccc(OCc5ccc(Cl)cc5)cc4)CC(=O)N3C2)c(OC)c1 (racemic)
Marked response: 39

New cases:
Exam item: # CC50 at 168 h lookup, item COc1ccccc1NC(=O)C1=C(C)NC(SCC(=O)Nc2ccc(Br)cc2)=C(C#N)C1c1ccc(C)o1 (racemic)
Marked response: 34

Exam item: # CC50 at 168 h lookup, item CCc1ccc(NC(=O)CSC2=C(C#N)C(c3ccco3)C(C(=O)Nc3ccc(CC)cc3)=C(C)N2)cc1 (racemic)
Marked response: 33

Exam item: # CC50 at 168 h lookup, item CC1=C(C(=O)Nc2ccccc2)C(c2ccco2)C(C#N)=C(SCC(=O)Nc2ccc(C)c(C)c2)N1 (racemic)
Marked response: 19

---

Measured CC50 at 168 h of individual entries
Run description: Chronic cytotoxicity against PEK cells after 7 days by neutral red staining assay
Assay type: cell-based, Sus scrofa
Test settings: pig
Could you give me the number in µM? Just the number is fine.

The cases that follow already have their CC50 at 168 h on record.
Exam item: # CC50 at 168 h lookup, item CC1=C(C(=O)Nc2c(C)cccc2C)C(c2ccco2)C(C#N)=C(SCC(=O)Nc2nc3ccccc3s2)N1 (racemic)
Marked response: 7

Exam item: # CC50 at 168 h lookup, item CCc1ccc(NC(=O)CSC2=C(C#N)C(c3ccco3)C(C(=O)Nc3ccc(Cl)cc3)=C(C)N2)cc1 (racemic)
Marked response: 27

Exam item: # CC50 at 168 h lookup, item CC1=C(C(=O)Nc2ccc(Cl)cc2)C(c2ccccc2)C(C#N)=C(SCC(=O)Nc2ccc3ccccc3c2)N1 (racemic)
Marked response: 20

Let us move to another entry and its CC50 at 168 h.
Exam item: # CC50 at 168 h lookup, item CC1=C(C(=O)Nc2nc3ccccc3s2)C(c2ccco2)C(C#N)=C(SCC(=O)Nc2ccc(C(C)C)cc2)N1 (racemic)
Marked response: 29

---

Run description: Acute cytotoxicity against PEK cells after 24 hrs by neutral red staining assay
Type: cell-based, Sus scrofa
Test settings: pig
Measurement type: CC50 at 24 h

Exam item: # CC50 at 24 h lookup, item COc1ccccc1NC(=O)C1=C(C)NC(SCC(=O)Nc2ccc(Br)cc2)=C(C#N)C1c1ccc(C)o1 (racemic)
Marked response: 248 µM

Exam item: # CC50 at 24 h lookup, item COc1ccccc1NC(=O)C1=C(C)NC(SCC(=O)Nc2ccc(C)cc2)=C(C#N)C1c1cccs1 (racemic)
Marked response: > 250 µM

Exam item: # CC50 at 24 h lookup, item CC1=C(C(=O)Nc2ccc(Cl)cc2)C(c2ccccc2)C(C#N)=C(SCC(=O)Nc2cccc(C)c2)N1 (racemic)
Marked response: > 250 µM

New cases:
Exam item: # CC50 at 24 h lookup, item CCCCc1ccc(NC(=O)CSC2=C(C#N)C(c3ccco3)C(C(=O)Nc3ccc(OCC)cc3)=C(C)N2)cc1 (racemic)
Marked response: 64 µM

Exam item: # CC50 at 24 h lookup, item COc1ccc(NC(=O)CSC2=C(C#N)C(c3ccccc3F)C(C(=O)Nc3ccccc3C)=C(C)N2)cc1 (racemic)
Marked response: > 250 µM

Exam item: # CC50 at 24 h lookup, item CC1=C(C(=O)Nc2nc3ccccc3s2)C(c2ccco2)C(C#N)=C(SCC(=O)Nc2ccc(C(C)C)cc2)N1 (racemic)
Marked response: > 250 µM

Exam item: # CC50 at 24 h lookup, item CC1=C(C(=O)Nc2ccccc2C)C(c2ccco2)C(C#N)=C(SCC(=O)Nc2ccc3ccccc3c2)N1 (racemic)
Marked response: > 250 µM

---

Run description: Acute cytotoxicity against PEK cells after 24 hrs by neutral red staining assay
Format: cell-based, Sus scrofa
Test settings: pig
Measured CC50 at 24 h of individual entries

The cases that follow already have their CC50 at 24 h on record.
Exam item: # CC50 at 24 h lookup, item CC1=C(C(=O)Nc2ccc(Cl)cc2)C(c2ccccc2)C(C#N)=C(SCC(=O)Nc2ccc(Oc3ccccc3)cc2)N1 (racemic)
Marked response: > 250 µM

Exam item: # CC50 at 24 h lookup, item CC1=C(C(=O)Nc2c(C)cccc2C)C(c2ccco2)C(C#N)=C(SCC(=O)Nc2nc3ccccc3s2)N1 (racemic)
Marked response: > 250 µM

Exam item: # CC50 at 24 h lookup, item CCc1ccc(NC(=O)CSC2=C(C#N)C(c3ccco3)C(C(=O)Nc3ccc(Cl)cc3)=C(C)N2)cc1 (racemic)
Marked response: 26 µM

Let us move to another entry and its CC50 at 24 h.
Exam item: # CC50 at 24 h lookup, item CC1=C(C(=O)Nc2ccccc2)C(c2cccs2)C(C#N)=C(SCC(=O)c2ccccc2)N1 (racemic)
Marked response: > 250 µM

---

Test system: Tick-borne encephalitis virus
Run description: Antiviral activity against Tick-borne encephalitis virus Absettarov infected in PEK cells assessed as inhibition of viral plaque formation after 1 hr by gentian violet staining assay
Type: functional, cell-based
Measured IC50 of individual entries

The cases that follow already have their IC50 on record.
Exam item: # IC50 lookup, item CCCCc1ccc(NC(=O)CSC2=C(C#N)C(c3ccco3)C(C(=O)Nc3ccc(OCC)cc3)=C(C)N2)cc1 (racemic)
Marked response: 2500 nM

Exam item: # IC50 lookup, item CCc1ccc(NC(=O)CSC2=C(C#N)C(c3ccco3)C(C(=O)Nc3ccc(S(N)(=O)=O)cc3)=C(C)N2)cc1 (racemic)
Marked response: > 10000 nM

Exam item: # IC50 lookup, item CCc1ccc(NC(=O)CSC2=C(C#N)C(c3ccco3)C(C(=O)Nc3ccc(Cl)cc3)=C(C)N2)cc1 (racemic)
Marked response: > 10000 nM

Exam item: # IC50 lookup, item CC1=C(C(=O)Nc2nc3ccccc3s2)C(c2ccco2)C(C#N)=C(SCC(=O)Nc2nc3ccccc3s2)N1 (racemic)
Marked response: > 10000 nM

New cases:
Exam item: # IC50 lookup, item COc1ccc(N2CSC3=C(C#N)C(c4ccc(OCc5ccccc5)c(OC)c4)CC(=O)N3C2)cc1 (racemic)
Marked response: 90 nM

Exam item: # IC50 lookup, item COc1ccccc1NC(=O)C1=C(C)NC(SCC(=O)Nc2ccc(Br)cc2)=C(C#N)C1c1ccc(C)o1 (racemic)
Marked response: > 10000 nM

Exam item: # IC50 lookup, item CCCCc1ccc(N2CSC3=C(C#N)C(c4ccc(OCc5ccccc5)cc4)CC(=O)N3C2)cc1 (racemic)
Marked response: 1900 nM

Exam item: # IC50 lookup, item COc1ccc(NC(=O)CSC2=C(C#N)C(c3ccccc3F)C(C(=O)Nc3ccccc3C)=C(C)N2)cc1 (racemic)
Marked response: > 10000 nM

Exam item: # IC50 lookup, item CC1=C(C(=O)Nc2ccc(Cl)cc2)C(c2ccccc2)C(C#N)=C(SCC(=O)Nc2cccc(C)c2)N1 (racemic)
Marked response: 2000 nM

Exam item: # IC50 lookup, item CC1=C(C(=O)Nc2ccc(Cl)cc2)C(c2ccccc2)C(C#N)=C(SCC(=O)Nc2ccc3ccccc3c2)N1 (racemic)
Marked response: > 10000 nM

Exam item: # IC50 lookup, item CC1=C(C(=O)Nc2ccccc2)C(c2cccs2)C(C#N)=C(SCC(=O)c2ccccc2)N1 (racemic)
Marked response: > 10000 nM

---

Measured IC50 of individual entries
Tested on: Tick-borne encephalitis virus
Run description: Antiviral activity against Tick-borne encephalitis virus Absettarov infected in PEK cells assessed as inhibition of viral plaque formation after 1 hr by gentian violet staining assay
Type: functional, cell-based

The cases that follow already have their IC50 on record.
Exam item: # IC50 lookup, item CCc1ccc(N2CSC3=C(C#N)C(c4cccc(OCc5ccccc5)c4)CC(=O)N3C2)cc1 (racemic)
Marked response: > 10 µM

Exam item: # IC50 lookup, item COc1ccc(N2CSC3=C(C#N)C(c4ccc(OCc5ccc(Cl)cc5)cc4)CC(=O)N3C2)c(OC)c1 (racemic)
Marked response: 0.07 µM

Exam item: # IC50 lookup, item CC1=C(C(=O)Nc2ccccc2C)C(c2ccco2)C(C#N)=C(SCC(=O)Nc2ccc3ccccc3c2)N1 (racemic)
Marked response: > 10 µM

Exam item: # IC50 lookup, item CC1=C(C(=O)Nc2ccc(Cl)cc2)C(c2ccccc2)C(C#N)=C(SCC(=O)Nc2ccc(Oc3ccccc3)cc2)N1 (racemic)
Marked response: 2.8 µM

Exam item: # IC50 lookup, item CC1=C(C(=O)Nc2c(C)cccc2C)C(c2ccco2)C(C#N)=C(SCC(=O)Nc2nc3ccccc3s2)N1 (racemic)
Marked response: > 10 µM

Exam item: # IC50 lookup, item CC1=C(C(=O)Nc2ccccc2)C(c2ccco2)C(C#N)=C(SCC(=O)Nc2ccc(C)c(C)c2)N1 (racemic)
Marked response: > 10 µM

Let us move to another entry and its IC50.
Exam item: # IC50 lookup, item COc1ccccc1NC(=O)C1=C(C)NC(SCC(=O)Nc2ccc(C)cc2)=C(C#N)C1c1cccs1 (racemic)
Marked response: > 10 µM
